# Measured target: Ceramide glucosyltransferase (Homo sapiens)
# Sequence (Q16739 whole entry): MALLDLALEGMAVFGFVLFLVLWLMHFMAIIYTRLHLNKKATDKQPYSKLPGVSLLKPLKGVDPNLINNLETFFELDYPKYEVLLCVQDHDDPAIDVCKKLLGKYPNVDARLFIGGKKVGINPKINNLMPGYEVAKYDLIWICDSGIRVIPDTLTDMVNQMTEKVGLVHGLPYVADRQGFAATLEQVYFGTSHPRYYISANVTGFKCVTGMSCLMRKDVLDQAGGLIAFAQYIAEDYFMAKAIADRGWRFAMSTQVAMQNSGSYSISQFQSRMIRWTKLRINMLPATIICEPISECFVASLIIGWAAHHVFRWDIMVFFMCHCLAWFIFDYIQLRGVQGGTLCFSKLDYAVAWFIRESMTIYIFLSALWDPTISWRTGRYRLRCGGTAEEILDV
# Assay protocol: Inhibition of Glucosylceramide synthase (unknown origin) using C6-ceramide and UDP-glucose as substrate preincubated for 30 mins followed by substrate addition and measured after 2 hrs by UDP-Glo luminometer analysis
pIC50: −log10 of the molar value.
Here, each record is paired with measured pIC50 data.
Observation type: pIC50

1. COc1ccc(-n2nc(C(=O)N3CCCNCC3)c3c2CCOC3)cc1 = 6.16
2. CCN1CCCN(C(=O)c2nn(-c3ccc(OC)cc3)c3c2COCC3)CC1 = 5.13
3. COc1ccc(-n2nc(C(=O)N3CCCN(C)CC3)c3c2CCOC3)cc1 = 6.00
4. COc1ccc(-n2nc(C(=O)N3CCN(C)CC(F)C3)c3c2CCOC3)cc1 (racemic) = 4.90
5. O=C(N1CCN2CCC1CC2)n1nc(-c2ccc(F)c(Cl)c2)c2c1COCC2 = 9.00
6. O=C(c1nn(-c2ccc(F)c(Cl)c2)c2c1COCC2)N1CCN2CCC1CC2 = 8.22

====

Here, each record is paired with measured Ratio IC50 data.
# Species: Homo sapiens
# Assay protocol: Selectivity ratio of IC50 for human 5HT3A to IC50 for GCS (unknown origin)
Observation type: Ratio IC50

1) O=C(N1CCN2CCC1CC2)n1nc(-n2cc(Cl)cn2)c2c1COCC2 = 96
2) O=C(N1CCN2CCC1CC2)n1nc(-c2ccc(C(F)(F)F)cc2)c2c1COCC2 = 647
3) O=C(N1CCN2CCC1CC2)n1nc(-n2cc(C(F)(F)F)cn2)c2c1[C@H]1C[C@H]1C2 = 25000
4) COc1ccc(-c2nn(C(=O)N3CCN4CCC3CC4)c3c2CCOC3)cc1 = 164
5) O=C(N1CCN2CCC1CC2)n1nc(-c2ccc(F)cc2)c2c1COCC2 = 64
6) CC1(C)Cc2c(c(-c3ccc(F)cc3)nn2C(=O)N2CCN3CCC2CC3)CO1 = 470
7) Cl.O=C(N1CCN2CCC1CC2)n1nc(-n2cc(C(F)(F)F)cn2)c2c1COCC2 = 1100
8) O=C(N1CCN2CCC1CC2)n1nc(-n2cc(C(F)(F)F)cn2)c2c1CCC2 = 5480
9) O=C(N1CCN2CCC1CC2)n1nc(-n2cc(C(F)(F)F)cn2)c2c1CCOC2 = 2070

====

# Measured target: Nuclear receptor subfamily 1 group I member 2 (Homo sapiens, UniProt O75469)
# Sequence (O75469 whole entry): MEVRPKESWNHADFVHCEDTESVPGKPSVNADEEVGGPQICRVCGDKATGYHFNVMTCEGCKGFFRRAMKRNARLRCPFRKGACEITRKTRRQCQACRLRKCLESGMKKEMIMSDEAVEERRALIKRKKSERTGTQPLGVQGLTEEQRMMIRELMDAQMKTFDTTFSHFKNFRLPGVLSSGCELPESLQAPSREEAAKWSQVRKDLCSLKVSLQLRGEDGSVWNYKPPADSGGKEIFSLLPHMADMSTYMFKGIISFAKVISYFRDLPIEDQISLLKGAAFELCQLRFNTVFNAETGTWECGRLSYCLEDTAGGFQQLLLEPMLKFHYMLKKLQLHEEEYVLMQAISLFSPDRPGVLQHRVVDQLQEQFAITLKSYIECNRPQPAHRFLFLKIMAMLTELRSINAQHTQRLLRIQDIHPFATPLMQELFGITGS
# Assay protocol: Activation of PXR (unknown origin)
Here, each record is paired with measured EC50 data.
Observation type: EC50

1. O=C(N1CCN2CCC1CC2)n1nc(-c2ccc(F)cc2)c2c1COCC2 = > 30 µM
2. Cl.O=C(N1CCN2CCC1CC2)n1nc(-n2cc(C(F)(F)F)cn2)c2c1COCC2 = > 30 µM

====

# Assay protocol: Lipophilicity, logD of compound by HPLC method
# Type: physicochemical
Here, each record is paired with measured logD data.
Observation type: logD

1) O=C(N1CCN2CCC1CC2)n1nc(-c2ccc(F)c(Cl)c2)c2c1COCC2 = 2.8
2) Cl.O=C(N1CCN2CCC1CC2)n1nc(-n2cc(C(F)(F)F)cn2)c2c1COCC2 = 2.5
3) O=C(N1CCN2CCC1CC2)n1nc(-c2ccc(F)cc2)c2c1COCC2 = 2.2
4) O=C(c1nn(-c2ccc(F)c(Cl)c2)c2c1COCC2)N1CCN2CCC1CC2 = 1.9

====

# Measured target: Ceramide glucosyltransferase (Homo sapiens)
# Assay protocol: Inhibition of GCS in human fibroblast
# Type: cell-based
Observation type: IC50 (nM)

1) O=C(N1CCN2CCC1CC2)n1nc(-c2ccc(C(F)(F)F)cc2)c2c1COCC2 = 21
2) CC1(C)Cc2c(c(-c3ccc(F)cc3)nn2C(=O)N2CCN3CCC2CC3)CO1 = 32
3) O=C(N1CCN2CCC1CC2)n1nc(-n2cc(C(F)(F)F)cn2)c2c1CCC2 = 32
4) O=C(N1CCN2CCC1CC2)n1nc(-n2cc(Cl)cn2)c2c1COCC2 = 37
5) O=C(N1CCN2CCC1CC2)n1nc(-n2cc(C(F)(F)F)cn2)c2c1[C@H]1C[C@H]1C2 = 33
6) Cl.O=C(N1CCN2CCC1CC2)n1nc(-n2cc(C(F)(F)F)cn2)c2c1COCC2 = 32
7) O=C(N1CCN2CCC1CC2)n1nc(-n2cc(C(F)(F)F)cn2)c2c1CCOC2 = 32
8) COc1ccc(-n2nc(C(=O)N3CCCN(C)CC3)c3c2CCOC3)cc1 = 180
9) COc1ccc(-c2nn(C(=O)N3CCN4CCC3CC4)c3c2CCOC3)cc1 = 35
10) O=C(N1CCN2CCC1CC2)n1nc(-c2ccc(F)cc2)c2c1COCC2 = 34

====

pIC50: −log10 of the molar value.
What follows is a record of pIC50 for Cytochrome P450 3A4 (Homo sapiens).
Observation type: pIC50

1. Cl.O=C(N1CCN2CCC1CC2)n1nc(-n2cc(C(F)(F)F)cn2)c2c1COCC2 = < 4.30
2. O=C(N1CCN2CCC1CC2)n1nc(-c2ccc(F)cc2)c2c1COCC2 = < 4.30
